System: MCF7
Method Description: Inhibitory activity of compound against human MCF-7 breast adenocarcinoma cell line.
Format: functional, cell-based
Measurement Kind: IC50

What IC50 value was documented for this compound, COc1ccc(C(C)=O)c(O)c1C/C=C(\C)CCC(=O)O ?
> 32.5 µM

----------
Tested on: HT-29
Method Description: Inhibitory activity of compound against HT-29 human colon adenocarcinoma cell line
Assay type: functional, cell-based
Measurement Kind: pIC50
Answers are plain numbers, as −log10 of the molar value.

Which pIC50 is listed for COc1c(C)c2c(c(O)c1C/C=C(\C)CCC(=O)O)C(=O)OC2 [MYCOPHENOLIC ACID] ?
6.40
